# Tested on: Saccharomyces cerevisiae
# ASSAY PROTOCOL: Antifungal activity against Saccharomyces cerevisiae, activity expressed as minimum inhibitory concentration (ug/mL).
# Assay type: functional
# CONDITION: Saccharomyces cerevisiae; read-out: MIC
READOUT NAME: MIC

Example compounds with recorded MIC:
Cc1ncc([N+](=O)[O-])n1CCO [METRONIDAZOLE]    > 32 µg/mL
COc1ccc(C[C@H]2NC[C@H](O)[C@H]2OC(C)=O)cc1 (racemic) [ANISOMYCIN]    0.5 µg/mL
CC(=O)O[C@@H]1[C@@H](O)CN[C@@H]1Cc1ccccc1    2 µg/mL

Query MIC for COc1ccc(C(c2ccccc2)[C@H]2NC[C@H](O)[C@H]2OC(C)=O)cc1 (stereo partly specified)
> 32 µg/mL

Query MIC for COc1cccc(C[C@H]2NC[C@H](O)[C@H]2OC(C)=O)c1
8 µg/mL

Query MIC for CC(=O)O[C@@H]1[C@@H](O)CN[C@@H]1Cc1ccc(C)cc1
1 µg/mL
